Property: IC50; scope: individual compounds
Biological target: KRAS G12D (Homo sapiens, UniProt P01116+P62937, G12D)
Sequence (P01116 1-169 isoform P01116-2 G12D limits assumed): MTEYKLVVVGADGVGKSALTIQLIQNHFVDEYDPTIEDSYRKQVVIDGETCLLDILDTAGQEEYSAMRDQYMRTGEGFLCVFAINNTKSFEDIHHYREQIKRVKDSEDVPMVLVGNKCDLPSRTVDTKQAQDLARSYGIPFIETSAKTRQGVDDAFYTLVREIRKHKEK
Sequence (P62937 whole entry): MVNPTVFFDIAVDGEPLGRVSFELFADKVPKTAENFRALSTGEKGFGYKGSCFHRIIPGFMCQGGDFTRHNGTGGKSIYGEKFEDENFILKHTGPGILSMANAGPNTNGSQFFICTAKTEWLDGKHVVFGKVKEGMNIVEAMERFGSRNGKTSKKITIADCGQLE
Test: Disruption of BRAF RBD interaction with Ras (FRET / MOA assay, with Cyclophilin A)
Format: biochemical
Conditions: KRAS G12D FRET data, IC50
Excerpt: This protocol may also be executed substituting other Ras proteins or nucleotides. The purpose of this biochemical assay was to measure the ability of test compounds to facilitate ternary complex formation between a nucleotide-loaded K-Ras isoform and Cyclophilin A; the resulting ternary complex disrupts binding to a BRAF^RBD construct, inhibiting K-Ras signaling through a RAF effector. Data is reported as IC50 values. […]
MEASUREMENT_LABEL: IC50

[[record]]
compound = "CCn1c(-c2cnccc2COC)c2c3cc(ccc31)-c1cc(O)cc(c1)C[C@H](NC(=O)[C@H](C(C)C)N(C)C(=O)[C@H]1CCCO1)C(=O)N1CCC[C@H](N1)C(=O)OCC(C)(C)C2 [Example A90]"
data_value = "1000 to 10000 nM"

[[record]]
compound = "CCn1c(-c2cccnc2[C@H](C)OC)c2c3cc(ccc31)-c1cc(O)cc(c1)C[C@H](NC(=O)[C@H](C(C)C)N(C)C(=O)[C@H]1C[C@@H](O)C1)C(=O)N1CCC[C@H](N1)C(=O)OCC(C)(C)C2 (atropisomer, axis not shown) [Example A121]"
data_value = "100 to 1000 nM"

[[record]]
compound = "CCn1c(-c2cccnc2[C@H](C)OC)c2c3cc(ccc31)-c1csc(n1)C[C@H](NC(=O)[C@H](C(C)C)N(C)C(=O)N1CCC[C@H](CN(C)C)C1)C(=O)N1CCC[C@H](N1)C(=O)OCC(C)(C)C2 (atropisomer, axis not shown) [Example A573]"
data_value = "10 to 100 nM"

[[record]]
compound = "CCn1c(-c2cnccc2COC)c2c3cc(ccc31)-c1cc(O)cc(c1)C[C@H](NC(=O)[C@H](C(C)C)N(C)C(=O)[C@H]1CCN(C(=O)OC)C1)C(=O)N1CCC[C@H](N1)C(=O)OCC(C)(C)C2 [Example A11]"
data_value = "1000 to 10000 nM"

[[record]]
compound = "CCn1c(-c2cccnc2[C@H](C)OC)c2c3cc(ccc31)-c1csc(n1)C[C@H](NC(=O)[C@H](C(C)C)N(C)C(=O)OC)C(=O)N1CCC[C@H](N1)C(=O)OCC(C)(C)C2 [Example A138]"
data_value = "1000 to 10000 nM"

[[record]]
compound = "CCn1c(-c2cccnc2[C@H](C)OC)c2c3cc(ccc31)-c1csc(n1)C[C@H](NC(=O)[C@H](C(C)C)N(C)C(=O)N1CCC[C@@H](N(C)C)CC1)C(=O)N1CCC[C@H](N1)C(=O)OCC(C)(C)C2 [Example A494]"
data_value = "10 to 100 nM"

[[record]]
compound = "CCn1c(-c2cnccc2COC)c2c3cc(ccc31)-c1cc(O)cc(c1)C[C@H](NC(=O)[C@H](C(C)C)N(C)C(=O)C1CCN(C)CC1)C(=O)N1CCC[C@H](N1)C(=O)OCC(C)(C)C2 [Example A84]"
data_value = "1000 to 10000 nM"

[[record]]
compound = "CCn1c(-c2cccnc2[C@H](C)OC)c2c3cc(ccc31)-c1csc(n1)C[C@H](NC(=O)N1CCCC1)C(=O)N1CCC[C@H](N1)C(=O)OCC(C)(C)C2 [Example A267]"
data_value = "100 to 1000 nM"

[[record]]
compound = "CCn1c(-c2cccnc2[C@H](C)OC)c2c3cc(ccc31)-c1cc(O)cc(c1)C[C@H](NC(=O)[C@H](C(C)C)N(C)C(=O)[C@@H]1CC1(F)F)C(=O)N1CCC[C@H](N1)C(=O)OCC(C)(C)C2 [Example A167]"
data_value = "100 to 1000 nM"

[[record]]
compound = "C=CC(=O)N1CCO[C@@]2(CCN(C(=O)N(C)[C@H](C(=O)N[C@H]3Cc4nc(cs4)-c4ccc5c(c4)c(c(-c4cccnc4[C@H](C)OC)n5CC(F)(F)F)CC(C)(C)COC(=O)C4CCCN(N4)C3=O)C(C)C)C2)C1 (some centres unmarked) [Example A594]"
data_value = "100 to 1000 nM"

[[record]]
compound = "CCn1c(-c2cnccc2COC)c2c3cc(ccc31)-c1cc(O)cc(c1)C[C@H](NC(=O)[C@H](C(C)C)N(C)C(=O)[C@H]1CCN(C)C1)C(=O)N1CCC[C@H](N1)C(=O)OCC(C)(C)C2 [Example A27]"
data_value = "100 to 1000 nM"

[[record]]
compound = "CCn1c(-c2cnccc2COC)c2c3cc(ccc31)-c1cc(O)cc(c1)C[C@H](NC(=O)[C@H](C(C)C)N(C)C(=O)[C@H]1CCN(S(=O)(=O)N3CC(O)C3)C1)C(=O)N1CCC[C@H](N1)C(=O)OCC(C)(C)C2 [Example A37]"
data_value = "> 10000 nM"

[[record]]
compound = "C=CC(=O)N1CC[C@H](C(=O)N(C)[C@H](C(=O)N[C@H]2Cc3cccc(c3)-c3ccc4c(c3)c(c(-c3cccnc3[C@H](C)OC)n4CC)CC(C)(C)COC(=O)[C@@H]3CCCN(O3)C2=O)C(C)C)C1 [Example A284]"
data_value = "> 10000 nM"

[[record]]
compound = "CCn1c(-c2cccnc2[C@H](C)OC)c2c3cc(ccc31)-c1csc(n1)C[C@H](NC(=O)[C@H](C(C)C)N(C)C(=O)N1CCC(N(C)C)CC1)C(=O)N1CCC[C@H](N1)C(=O)OCC(C)(C)C2 (atropisomer, axis not shown) [Example A571]"
data_value = "100 to 1000 nM"

[[record]]
compound = "CCn1c(-c2cccnc2[C@H](C)OC)c2c3cc(ccc31)-c1csc(n1)C[C@H](NC(=O)[C@H](C(C)C)N(C)C(=O)N1CCOC[C@@H]1CN(C)C)C(=O)N1CCC[C@H](N1)C(=O)OCC(C)(C)C2 [Example A572]"
data_value = "1000 to 10000 nM"

[[record]]
compound = "CCn1c(-c2cnccc2COC)c2c3cc(ccc31)-c1cc(O)cc(c1)C[C@H](NC(=O)[C@H](C(C)C)N(C)S(C)(=O)=O)C(=O)N1CCC[C@H](N1)C(=O)OCC(C)(C)C2 [Example A57]"
data_value = "> 10000 nM"

[[record]]
compound = "CCn1c(-c2cnccc2COC)c2c3cc(ccc31)-c1cc(O)cc(c1)C[C@H](NC(=O)[C@H](C(C)C)N(C)C(=O)[C@H]1CCN(C(=O)N(C)C)C1)C(=O)N1CCC[C@H](N1)C(=O)OCC(C)(C)C2 [Example A42]"
data_value = "> 10000 nM"

